pIC50: −log10 of the molar value. Where a name gives a salt, the structure may show the parent alone.
pIC50 values recorded for UniProt P00918

molecule: Cc1ccc(Cl)cc1N1CCN(S(N)(=O)=O)CC1
pIC50: 6.30

molecule: NS(=O)(=O)N1CCN(c2ccc(F)cc2)CC1
pIC50: 5.14

molecule: NS(=O)(=O)N1CCN(c2cc(C(F)(F)F)nc3ccccc23)CC1
pIC50: 5.72

molecule: NS(=O)(=O)N1CCN(c2ccc(C(F)(F)F)cn2)CC1
pIC50: 7.10

molecule: CS(=O)(=O)c1ccc(N2CCN(S(N)(=O)=O)CC2)c(F)c1
pIC50: 6.70

molecule: NS(=O)(=O)N1CCN(c2nccc(C(F)(F)F)n2)CC1
pIC50: 5.80

molecule: NS(=O)(=O)N1CCN(c2ccc(C(F)(F)F)cc2[N+](=O)[O-])CC1
pIC50: 6.52

molecule: COc1ccccc1N1CCN(S(N)(=O)=O)CC1 [Example 3, hydrochloride]
pIC50: 5.11

molecule: NS(=O)(=O)N1CCN(c2ccccc2)CC1 [Example 2, hydrochloride]
pIC50: 5.29

molecule: Cc1cccc(N2CCN(S(N)(=O)=O)CC2)c1C
pIC50: 5.77

* * *

Measured pIC50 (human carbonic anhydrase isoenzyme II (hCA II) (Homo sapiens, UniProt P00918))
pIC50: −log10 of the molar value.
recorded endpoint: pIC50

structure: CC(=O)c1ccc(N2CCN(S(N)(=O)=O)CC2)cc1
recorded endpoint: pIC50
val: 6.40

structure: NS(=O)(=O)N1CCN(c2c(Cl)cncc2Cl)CC1
recorded endpoint: pIC50
val: 6.52

structure: N#Cc1cccnc1N1CCN(S(N)(=O)=O)CC1
recorded endpoint: pIC50
val: 6.05

structure: NS(=O)(=O)N1CCN(c2ccc(Cl)c(C(F)(F)F)c2)CC1
recorded endpoint: pIC50
val: 5.92

structure: NS(=O)(=O)N1CCN(c2cccc(Cl)c2)CC1
recorded endpoint: pIC50
val: 5.40

structure: NS(=O)(=O)N1CCN(c2ccccn2)CC1
recorded endpoint: pIC50
val: 5.43

structure: NS(=O)(=O)N1CCN(c2ncc(C(F)(F)F)cc2Cl)CC1
recorded endpoint: pIC50
val: 6.70

structure: NS(=O)(=O)N1CCN(c2ncccn2)CC1
recorded endpoint: pIC50
val: 5.74

* * *

Structures can show the parent of a compound that is named as a salt.
Catalogue of melting point readings, one per entry.
recorded endpoint: melting point (°C)

compound: CC(=O)c1ccc(N2CCN(S(N)(=O)=O)CC2)cc1 (as salt: HCl)
unit abbrev: °C
val: 156
//
compound: NS(=O)(=O)N1CCN(c2c(Cl)cncc2Cl)CC1 (as salt: HCl)
unit abbrev: °C
val: 206
//
compound: NS(=O)(=O)N1CCN(c2ncc(C(F)(F)F)cc2Cl)CC1 (as salt: HCl)
unit abbrev: °C
val: 159
//
compound: NS(=O)(=O)N1CCN(c2cc(C(F)(F)F)nc3ccccc23)CC1 (as salt: HCl)
unit abbrev: °C
val: 191
//
compound: N#Cc1cccnc1N1CCN(S(N)(=O)=O)CC1 (as salt: HCl)
unit abbrev: °C
val: 190
//
compound: NS(=O)(=O)N1CCN(c2ccc(C(F)(F)F)cc2[N+](=O)[O-])CC1 (as salt: HCl)
unit abbrev: °C
val: 134
//
compound: Cc1ccc(Cl)cc1N1CCN(S(N)(=O)=O)CC1 (as salt: HCl)
unit abbrev: °C
val: 190
//
compound: NS(=O)(=O)N1CCN(c2nccc(C(F)(F)F)n2)CC1 (as salt: HCl)
unit abbrev: °C
val: 156
//
compound: NS(=O)(=O)N1CCN(c2ccc(F)cc2)CC1 (as salt: HCl)
unit abbrev: °C
val: 125
//
compound: Cc1cccc(N2CCN(S(N)(=O)=O)CC2)c1C (as salt: HCl)
unit abbrev: °C
val: 202
//
compound: NS(=O)(=O)N1CCN(c2ccc(Cl)c(C(F)(F)F)c2)CC1 (as salt: HCl)
unit abbrev: °C
val: 180
//
compound: NS(=O)(=O)N1CCN(c2ccc(C(F)(F)F)cn2)CC1 (as salt: HCl)
unit abbrev: °C
val: 169
//
compound: CS(=O)(=O)c1ccc(N2CCN(S(N)(=O)=O)CC2)c(F)c1 (as salt: HCl)
unit abbrev: °C
val: 184
//
compound: NS(=O)(=O)N1CCN(c2ccncc2)CC1 (as salt: HCl)
unit abbrev: °C
val: 243
